# Test system: B78-D14 m.12,436^60% cells
# test.method.notes: Cell sensitivity to inhibitors (IC50 from final confluency, IncuCyte)
# Type: cell-based, mouse
# condition.parameters: Mus musculus
pIC50: −log10 of the molar value.
measurement.kind: pIC50

[
  {
    "compound": "C=C(C)[C@H]1Cc2c(ccc3c2O[C@@H]2COc4cc(OC)c(OC)cc4[C@@H]2C3=O)O1 [rotenone]",
    "measured.on": "B78-D14 m.12,436^60% cells",
    "observed.measurement": 6.63
  }
]

---

Below, each entry is listed with its recorded IC50.
# System: B78-D14 m.12,436^60% cells
# test.method.notes: Cell sensitivity to inhibitors (IC50 from final confluency, IncuCyte)
# Assay type: cell-based, mouse
# condition.parameters: Mus musculus; m.12,436^60% cells; read-out: IC50
measurement.kind: IC50 (mM)

[
  {
    "structure.smiles.string": "CN(C)C(=N)N=C(N)N",
    "measurement.kind": "IC50",
    "output.unit": "mM",
    "observed.measurement": 16.6
  },
  {
    "structure.smiles.string": "O=CC[C@@H](O)[C@H](O)[C@H](O)CO",
    "measurement.kind": "IC50",
    "output.unit": "mM",
    "observed.measurement": 0.81
  }
]

Provenance of the data: patent US20260263567A1
